ASSAYED_SYSTEM: human MC1R (Homo sapiens, UniProt Q01726)
Construct: expressed in transfected cells
Sequence (Q01726 whole entry): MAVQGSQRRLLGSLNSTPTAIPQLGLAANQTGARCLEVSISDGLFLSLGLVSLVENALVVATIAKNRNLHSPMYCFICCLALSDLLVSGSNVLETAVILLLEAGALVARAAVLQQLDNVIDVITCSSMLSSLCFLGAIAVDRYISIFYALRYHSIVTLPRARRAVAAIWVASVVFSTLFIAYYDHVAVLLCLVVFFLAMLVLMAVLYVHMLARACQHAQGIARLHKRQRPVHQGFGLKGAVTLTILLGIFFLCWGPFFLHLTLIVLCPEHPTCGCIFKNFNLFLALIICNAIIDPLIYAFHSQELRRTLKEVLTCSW
ASSAY: Functional cAMP assay (CisBio HTRF) in BHK cells expressing human MC1R
Format: cell-based
MEASUREMENT_CONDITIONS: BHK cells expressing human MC1R; '>' = highest dose used with no response; read-out: MC1R cAMP EC50
Positions of bridges follow the written chain, without caps; N, C: chain ends. Non-standard residues stand in square brackets, D forms with d. Residues, ends and D or L forms follow the SMILES beside them. Hyp = O=C(O)[C@@H]1C[C@@H](O)CN1
REPORTED_PROPERTY: EC50 (nM)
Write the value in nM as a bare number.

Exercise: I'm curious: which EC50 was measured for N=C(N)NCCC[C@@H]1NC(=O)[C@@H](Cc2ccccc2)NC(=O)[C@@H]2C[C@@H](O)CN2C(=O)[C@@H]2CSSC[C@H](NC(=O)[C@H](Cc3c[nH]c4ccccc34)NC1=O)C(=O)N1C[C@H](O)C[C@H]1C(=O)N[C@H](Cc1ccccc1)C(=O)N[C@@H](CCCNC(=N)N)C(=O)N[C@@H](Cc1c[nH]c3ccccc13)C(=O)N2 [Chem. 27] (cyclo(C[Hyp][dF]RWC[Hyp][dF]RW); disulfide 1-6) tested on human MC1R (Homo sapiens, UniProt Q01726)?
Key: 50.9

----------
ASSAYED_SYSTEM: human MC4R (Homo sapiens)
Construct: expressed in transfected cells
Sequence (P32245 whole entry): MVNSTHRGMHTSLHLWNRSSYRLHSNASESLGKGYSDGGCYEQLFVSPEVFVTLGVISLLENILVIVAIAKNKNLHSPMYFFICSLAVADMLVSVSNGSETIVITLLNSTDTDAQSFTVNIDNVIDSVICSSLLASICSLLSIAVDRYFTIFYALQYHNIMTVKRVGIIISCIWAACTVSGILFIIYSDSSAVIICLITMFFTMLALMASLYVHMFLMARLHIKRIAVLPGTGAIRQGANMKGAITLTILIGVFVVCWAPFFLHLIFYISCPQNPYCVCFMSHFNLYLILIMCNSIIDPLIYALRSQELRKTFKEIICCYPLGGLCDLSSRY
ASSAY: Functional cAMP assay (CisBio HTRF) in BHK cells expressing human MC4R
Type: cell-based
MEASUREMENT_CONDITIONS: MC1R cAMP EC50 divided by MC4R cAMP EC50
Positions of bridges follow the written chain, without caps; N, C: chain ends. Non-standard residues stand in square brackets, D forms with d. Residues, ends and D or L forms follow the SMILES beside them. Sar = CNCC(=O)O
# reported MC1R/MC4R cAMP EC50 ratio; entries follow
Number, no unit, nothing else.

COMPOUND	MC1R/MC4R cAMP EC50 ratio
C[C@@H]1NC(=O)[C@H](C)NC(=O)[C@@H]2CSSC[C@H](NC(=O)[C@H](Cc3c[nH]c4ccccc34)NC(=O)[C@H](C)NC(=O)[C@@H](Cc3ccccc3)NC1=O)C(=O)N[C@@H](C)C(=O)N[C@@H](Cc1c[nH]cn1)C(=O)N[C@H](Cc1ccccc1)C(=O)N[C@@H](CCCNC(=N)N)C(=O)N[C@@H](Cc1c[nH]c3ccccc13)C(=O)N2 [Chem. 11] (cyclo(AA[dF]AWCAH[dF]RWC); disulfide 6-12)	72

Exercise: # MC1R/MC4R cAMP EC50 ratio lookup, item C[C@@H]1NC(=O)[C@@H]2CSSC[C@H](NC(=O)[C@H](Cc3c[nH]c4ccccc34)NC(=O)[C@H](CCCNC(=N)N)NC(=O)[C@@H](Cc3ccccc3)NC(=O)[C@H](Cc3c[nH]cn3)NC1=O)C(=O)N[C@@H](CCCNC(=N)N)C(=O)N[C@@H](Cc1ccccc1)C(=O)N[C@@H](Cc1ccccc1)C(=O)N[C@@H](CC(N)=O)C(=O)N[C@@H](C)C(=O)N2 [Chem. 12] (cyclo(ACAH[dF]RWCRFFN); disulfide 2-8)
Key: 57

Exercise: Similarly, CN1CC(=O)N[C@@H](Cc2c[nH]cn2)C(=O)N[C@H](Cc2ccccc2)C(=O)N[C@@H](CCCNC(=N)N)C(=O)N[C@@H](Cc2c[nH]c3ccccc23)C(=O)N[C@H]2CSSC[C@H](NC(=O)[C@H](Cc3c[nH]c4ccccc34)NC(=O)[C@H](CCCNC(=N)N)NC(=O)[C@@H](Cc3ccccc3)NC(=O)[C@H](Cc3c[nH]cn3)NC(=O)CN(C)C2=O)C1=O [Chem. 31] (cyclo(C[Sar]H[dF]RWC[Sar]H[dF]RW); disulfide 1-7) ?
Key: 27
